assay_target: KRAS G12S (Homo sapiens, UniProt P01116, G12S)
Sequence (P01116 1-188 isoform P01116-2 G12S): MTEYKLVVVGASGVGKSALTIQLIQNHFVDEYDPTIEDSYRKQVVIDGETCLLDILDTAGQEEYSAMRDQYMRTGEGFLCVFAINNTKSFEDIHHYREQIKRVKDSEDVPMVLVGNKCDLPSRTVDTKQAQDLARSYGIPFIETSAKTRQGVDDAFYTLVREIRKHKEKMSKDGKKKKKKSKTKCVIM
protocol_text: HTRF KRAS-SOS1 interaction assay, KRAS G12S
reported_conditions: binned ≤2 μM / >2 μM, read-out: Inhibition of KRAS G12S (IC50)
# IC50 per entry

A selection of reference data follows.
C[C@H](c1cc(C#N)cnc1N)N1CCOc2c(Cl)c(-c3ccc(F)c4sc(N)c(C#N)c34)c(F)c3nc(OC[C@@]45CCCN4C[C@H](F)C5)nc1c23; ≤ 2 µM
C[C@H](c1cccnc1N)N1CCOc2c(C(F)(F)F)c(-c3ccc(F)c4sc(N)c(C#N)c34)c(F)c3nc(OCC4(CN5CCC(F)CC5)CC4)nc1c23; ≤ 2 µM

IC50 reading for N#Cc1c(N)sc2c(F)ccc(-c3c(C(F)(F)F)c4c5c(nc(OC[C@@]67CCCN6C[C@H](F)C7)nc5c3F)N([C@@H](c3cccnc3N)C(F)F)CCO4)c12 (single isomer, unassigned) : ≤ 2 µM
